Data origin: patent US20220362122A1

# keratin in hair: Damage level normalized to NH3•H2O values follow
test-readout: Damage level normalized to NH3•H2O

compound: [Na+].[OH-] [NaOH, reference compound]
recorded-value: 5.12

compound: NCC(O)CO (centres unmarked) [Isoserinol, 3-Amino-1,2-propanediol]
recorded-value: 2.09

compound: CC(C)(N)CO [AMP, aminomethyl propanol, reference compound]
recorded-value: 3.08

compound: NC(CO)(CO)CO [Tris, Tromethamine]
recorded-value: 0.51

compound: OCCNCCO [DEA, Diethanolamine]
recorded-value: 0.64

compound: CN(C)C(C)(C)CO [DMAMP, 2-Dimethyl-amino-2-methyl-1-propanol]
recorded-value: 0.92

compound: CN(C)CC(O)CO (centres unmarked) [DMAPD, 3-(dimethylamino)-1,2-propanediol]
recorded-value: 0.34

compound: NC(CO)CO [Serinol, 2-Amino-1,3-propanediol]
recorded-value: 1.14

compound: CC(N)(CO)CO [AMPD, 2-Amino-2-methyl-1,3-propanediol]
recorded-value: 1.63

compound: NCCO [MEA, monoethanolamine, reference compound]
recorded-value: 3.03

compound: CCC(N)(CO)CO [AEPD, 2-Amino-2-ethyl-1,3-propanediol]
recorded-value: 1.49

----------
assay-comment: pH of alkalizer composition
condition-context: alkalizer composition: Table 2 base + alkalizer, same molar percentage
test-readout: pH

compound: CC(C)(N)CO [AMP, aminomethyl propanol, reference compound]
recorded-value: 10.91
//
compound: CN(C)C(C)(C)CO [DMAMP, 2-Dimethyl-amino-2-methyl-1-propanol]
recorded-value: 11.15
//
compound: NCCO [MEA, monoethanolamine, reference compound]
recorded-value: 10.85
//
compound: CN(C)CC(O)CO (centres unmarked) [DMAPD, 3-(dimethylamino)-1,2-propanediol]
recorded-value: 10.37
//
compound: NC(CO)CO [Serinol, 2-Amino-1,3-propanediol]
recorded-value: 10.22
//
compound: NC(CO)(CO)CO [Tris, Tromethamine]
recorded-value: 9.6
//
compound: NCC(O)CO (centres unmarked) [Isoserinol, 3-Amino-1,2-propanediol]
recorded-value: 10.56
//
compound: CCC(N)(CO)CO [AEPD, 2-Amino-2-ethyl-1,3-propanediol]
recorded-value: 10.33

----------
Test system: outer root sheath cells
assay-comment: MultiTox-Fluor Multiplex Cytotoxicity Assay, outer root sheath cells
Assay type: cell-based
condition-context: greater IC50 = less stress on the cells; unit inferred
pIC50: −log10 of the molar value.

molecule: NCC(O)CO (stereo not shown) [Isoserinol, 3-Amino-1,2-propanediol]
system: outer root sheath cells
pIC50: 1.25
--
molecule: CCC(N)(CO)CO [AEPD, 2-Amino-2-ethyl-1,3-propanediol]
system: outer root sheath cells
pIC50: 1.06
--
molecule: NCCO [MEA, monoethanolamine, reference compound]
system: outer root sheath cells
pIC50: 1.67
--
molecule: CN(C)C(C)(C)CO [DMAMP, 2-Dimethyl-amino-2-methyl-1-propanol]
system: outer root sheath cells
pIC50: 1.74

----------
condition-context: single alkalizer composition + volume 40 oxidizer developer on hair tresses, 37° C., 45 minutes; virgin 19
Measured L Value accompanies every entry in the list below.
test-readout: L Value

compound: CCC(N)(CO)CO
test-readout: L Value
recorded-value: 30

compound: NC(CO)CO
test-readout: L Value
recorded-value: 31

compound: CC(C)(N)CO [AMP, aminomethyl propanol, reference compound]
test-readout: L Value
recorded-value: 32.5

compound: NC(CO)(CO)CO
test-readout: L Value
recorded-value: 27

compound: NCCO [MEA, monoethanolamine, reference compound]
test-readout: L Value
recorded-value: 36

compound: CN(C)C(C)(C)CO
test-readout: L Value
recorded-value: 26

compound: CN(C)CC(O)CO (stereo not drawn)
test-readout: L Value
recorded-value: 25.5

compound: NCC(O)CO (stereo not drawn)
test-readout: L Value
recorded-value: 36
